- Test system: CCRF-CEM leukemia
- MEASUREMENT PROTOCOL: NCI-60 one-dose screen, 48 h (100 = growth as untreated, 0 = no growth, -100 = all killed)
- CONDITIONS: 10 µM
The panel holds about 83,000 compounds, 20% with a hit somewhere; the sample as a whole holds those more often.
READOUT LABEL: growth (%)
Give just the numeric value; % need not be written.

Worked cases, answers included:
# MOLECULE, VAL
rows = [
    ("COc1ccc(-c2nnc(N3CCN(C(=O)CN4CCN(c5ccc(Cl)cc5)CC4)CC3)nc2-c2ccc(OC)cc2)cc1", 47.2),
    ("COc1ccc(-c2cc(/C=C3\\C(=O)Nc4cc(Cl)ccc43)[nH]n2)cc1OC", 54.2),
    ("O=c1oc2c3ccc4cnccc4c3[nH]c2c2ccccc12", -1.54),
    ("Nc1cc(O)cc(O)c1", 114),
    ("Nc1c(C(=O)NC2CCCCC2)sc2nc3c(cc12)C(=O)CCC3", 98.8),
]

I have this molecule here, CC1(C)CC(=O)c2c(nc3ccc(Cl)cc3c2-c2ccccc2)C1 , and I need its recorded growth.
49.5

Repeat with C[n+]1c(/C=C/c2c[nH]c3ccccc23)ccc2ccccc21
43.4

Repeat with COc1cc(CSc2nc3ccc(C)cc3c(=O)n2-c2ccccc2)cc(OC)c1OC
15.8

Repeat with Cc1cc(C)c(C(=O)OC(C)CNC2CCCCC2)c(C)c1 (stereo unspecified)
89.7

Repeat with COc1ccc(COC(=O)CC(C)C)cc1
102

Repeat with O=C(O)CN1C(=O)C=CC1=O
107

----------
- System: HCT-15 colon
- MEASUREMENT PROTOCOL: NCI-60 one-dose screen, 48 h
- CONDITIONS: 10 µM
Compounds without any hit were thinned out: in the full panel of roughly 83,000, 20% have a hit. Activity calls are given as the source filed them. The calls were made as follows: active = growth percent below 10; inactive = the rest.
The reply should be one of these categories: class 1 = active, class 0 = inactive

Please review the entries below; each comes with its answer.
# COMPOUND, GROUP LABEL
rows = [
    ("Cn1c([N+](=O)[O-])cnc1/C=C1\\Oc2ccc(Br)cc2C1=O", "class 1"),
    ("CCCCCN(CCCCC)C(C)C(O)c1ccc2cc(Cl)c3ccccc3c2c1 (configuration not stated)", "class 0"),
    ("COc1cc([C@@H]2c3cc4c(cc3[C@H](SC(=N)N)[C@H]3COC(=O)[C@H]23)OCO4)cc(OC)c1OC", "class 0"),
    ("O=C(CCc1ccccc1)N1CCN(C(=O)CCc2ccccc2)CC1", "class 0"),
]

How did this test come out for O=S(=O)(O)C1(O)CCCCC1 ?
class 0

Repeat with COc1cccc2c1C(=O)c1c(O)c3c(c(O)c1C2=O)C[C@@](O)(C(=O)COC(=O)c1cccnc1)C[C@@H]3OC1CC(N)C(O)C(C)O1 (some centres not stated)
class 0

Repeat with CCOC(=O)CSC(=S)SCC(=O)OCC
class 0

Repeat with CCOC(=O)/C(C#N)=C(/C)C1CC1
class 0

Repeat with O=C(O)c1ccccc1C(=O)c1cccc2c(F)cccc12
class 0

Repeat with FC(F)(F)c1ccc(-c2cnc(Cl)nc2NCc2cc(C(F)(F)F)cc(C(F)(F)F)c2)cc1
class 1

Repeat with CC(C)c1ncc(CO)n1Cc1c(Cl)cccc1Cl
class 0

Repeat with COc1c(-c2c3sc(=O)[nH]c3nc3c2c(=O)[nH]n3C(C)C)cc2c(c1OC)OCO2
class 0

Repeat with CN(C)CCCN(Cc1ccccc1O)C(=S)Nc1ccc(Cl)cc1
class 0

Repeat with Cc1ccc2nc3[nH]c(=O)[nH]c(=O)c3c(N)c2c1
class 0

Repeat with C(=C\c1nc2ccccc2s1)/c1ccc(N2CCOCC2)s1
class 0

Repeat with CCCc1ccnc(NS(=O)(=O)c2ccc(N)cc2)n1
class 0

Repeat with C=CCN1C(=O)/C(=C\c2ccc3c(c2)CCC3)SC1=S
class 0

Repeat with CCCC(C)c1ccc(OCCCCCCN2CCNCC2)cc1 (configuration not stated)
class 1

----------
- Test system: UACC-62 melanoma
- MEASUREMENT PROTOCOL: NCI-60 one-dose screen, 48 h (100 = growth as untreated, 0 = no growth, -100 = all killed)
- CONDITIONS: 10 µM
About 83,000 compounds went through this panel and 20% of them were active in at least one assay; those are over-represented in the sample as a whole.
Assign class by growth: not lower than 60% means Y; lower than 60% means N.

Please review the entries below; each comes with its answer.
# COMPOUND STRUCTURE STRING, GROUP LABEL
measured = [
    ("Oc1ccccc1-c1nnc(Cn2c(Cc3cccc4ccccc34)nc3ccccc32)o1", "Y"),
    ("N#C/C(=C\\N1C(=O)/C(=C/c2cccc([N+](=O)[O-])c2)SC1=S)c1nc2ccccc2s1", "Y"),
    ("COc1ccc(-c2cc(/C=C3\\C(=O)Nc4cc(Cl)ccc43)[nH]n2)cc1", "N"),
    ("CCCCCCOc1ccc(/C=C/C(=O)c2ccc(B(O)O)cc2)cc1", "Y"),
]

Evaluate CCOc1ccc2c(c1)CC[C@@H]1[C@@H]2CC[C@]2(C)[C@@H](O)[C@@H](O)C[C@@H]12 : growth at minimum 60%?
Y

----------
- System: K-562 leukemia
- MEASUREMENT PROTOCOL: NCI-60 one-dose screen, 48 h (100 = growth as untreated, 0 = no growth, -100 = all killed)
- CONDITIONS: 10 µM
Compounds without any hit were thinned out: in the full panel of roughly 83,000, 20% have a hit.
Assign class by growth: not lower than 20% means met; lower than 20% means not met.

Please review the entries below; each comes with its answer.
# COMPOUND, GROUP LABEL
records = [
    ("COc1cc(-c2n/c(=C\\c3c(O)[nH]c4ccccc34)cc3c2=Nc2ccccc2-3)cc(OC)c1OC", "not met"),
    ("C/C(=N/NC(=O)c1sc(=S)n(C)c1N)c1cc2cc(Cl)ccc2o1", "met"),
    ("CCC1(C)OC(=O)NC1=O (configuration not stated)", "met"),
    ("COc1ccc2oc(=O)cc(C(c3ccc[nH]3)c3ccc[nH]3)c2c1", "not met"),
]

Evaluate CCc1ccc(-c2nnc(COc3ccc(-c4nc5ccc(C)cc5[nH]4)cc3OC)o2)cc1 : growth at minimum 20%?
met

Repeat with Cc1ccc2nc(-c3ccc(OCC(=O)N=Nc4c(O)[nH]c5ccccc45)cc3)[nH]c2c1
not met

Repeat with COc1cc(CSc2nc3ccc(C)cc3c(=O)n2-c2ccccc2)cc(OC)c1OC
not met

Repeat with COc1cc(-c2nc3ccccc3[nH]2)ccc1OCC(=O)N=Nc1c(O)[nH]c2ccccc12
not met

Repeat with CCCCCCN=C(N)CCCCCCCCCCC(N)=NCCCCCC
not met

Repeat with COc1cc(-c2nc3ccc(C)cc3[nH]2)ccc1OCC(=O)N=Nc1c(O)[nH]c2ccccc12
not met

Repeat with CCNC(=S)NN
met

Repeat with CC(=O)Nc1ccc(Sc2ccc(NC(C)=O)cc2)cc1
met

----------
Consider the following compounds and their measured growth readings.
- Test system: DU-145 prostate
- MEASUREMENT PROTOCOL: NCI-60 one-dose screen, 48 h (100 = growth as untreated, 0 = no growth, -100 = all killed)
- CONDITIONS: 10 µM
About 83,000 compounds went through this panel and 20% of them were active in at least one assay; those are over-represented in the sample as a whole. Active and inactive are the calls of the source. How the source made its calls: active means growth percent below 10; inactive means the rest.

Worked cases, answers included:
# COMPOUND, growth
rows = [
    ("FC(F)(F)c1ccc(-c2cnc(Br)nc2NC2CCCCCC2)cc1", "74.9% (inactive)"),
    ("O=C1/C(=C/c2ccc(O)cc2O)N=C2SCCCN12", "104% (inactive)"),
    ("CCN1CCN(c2nc(NNC(=O)c3cccc(OC)c3)nc(N3CCN(C(c4ccccc4)c4ccccc4)CC3)n2)CC1", "81.4% (inactive)"),
    ("CCCCc1ccc(NC(=O)N(CCCl)N=O)cc1", "106% (inactive)"),
]

I have this compound here, CC(=O)Nc1ccc(Sc2ccc(NC(C)=O)cc2)cc1 , and I need its recorded growth.
102% (inactive)

----------
Consider the following compounds and their measured growth readings.
- Tested on: SW-620 colon
- MEASUREMENT PROTOCOL: NCI-60 one-dose screen, 48 h (100 = growth as untreated, 0 = no growth, -100 = all killed)
- CONDITIONS: 10 µM
The panel holds about 83,000 compounds, 20% with a hit somewhere; the sample as a whole holds those more often.
Give just the numeric value; % need not be written.

I have this compound here, COc1cc(N=C2C(=O)N(Cc3ccccc3)c3ccccc32)cc(OC)c1OC , and I need its recorded growth.
103

Repeat with COc1ccc(/C=C2\SC(=S)N(CCCN3CCOCC3)C2=O)c(OC)c1
105

Repeat with O=C(O)CNS(=O)(=O)c1ccc(OCCOc2ccc(S(=O)(=O)NCC(=O)O)cc2)cc1
103

Repeat with CCC(OC(=O)CC(C)C)c1ccccc1 (stereo not given)
105

Repeat with COc1ccc(-c2csc(NC(=O)CO[N+](=O)[O-])n2)cc1
103

Repeat with C=CCn1c(C)nc2cc(Nc3nc(Nc4ccc5nc(C)n(CC=C)c5c4)c4ccccc4n3)ccc21
-76.2

Repeat with CCCCNC(=O)Oc1ccc(/C(=C(\C)c2ccc(OC)cc2)c2ccc(OCCN3CCCCC3)cc2)cc1
40.5

Repeat with CC(=O)CS(C)(=O)=O
102
